Reference for the values: the supplement of paper PMC11061612

I'd appreciate it if you could supply Bliss excess values for the items below.
System: SK-CO-1 (Colorectal Carcinoma);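 note: after 72 h of two-drug dosing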
Assay: Bliss excess, mean over the matrix (fraction); higher = more synergy
Please state the value as a number alone, without comment.

Problem: Dear colleague, I am looking for the recorded Bliss excess of the following compound: Cc1c2c(nn1C)CSCc1cc(n(C)n1)CSc1cc(c3ccccc3c1)OCCCc1c(C(=O)O)n(C)c3c-2c(Cl)ccc13 [AZD5991] + C1CN(CCC1(C(=O)N[C@@H](CCO)C2=CC=C(C=C2)Cl)N)C3=NC=NC4=C3C=CN4 [Capivasertib] (first compound max 1 µM, 7x7, partner max 3 µM)
Result: -0.0119

Problem: Try this compound next: CN(C)CCCOc1ccc(-c2ccc3ncc4c(c3c2)n(C2CCOCC2)c(=O)n4C)cn1 [AZD0156] + CCN(CCO)CCCOc1ccc2c(Nc3cc(CC(=O)Nc4cccc(F)c4)[nH]n3)ncnc2c1 [AZD2811] (first compound max 1 µM, 7x7, partner max 1 µM)
Result: 0.0205

Problem: Okay, and CN(C)CCCOc1ccc(-c2ccc3ncc4c(c3c2)n(C2CCOCC2)c(=O)n4C)cn1 [AZD0156] + C[C@@H]1COCCN1C2=NC(=NC(=C2)C3(CC3)[S@](=N)(=O)C)C4=C5C=CNC5=NC=C4 [AZD6738] (first compound max 1 µM, 7x7, partner max 10 µM) ?
Result: -0.0865

Problem: Ok, now Cc1cc2ncnn2cc1Nc1ncc2c(n1)n(C1CCOCC1)c(=O)n2C [AZD7648] + CN(C)CCCOc1ccc(-c2ccc3ncc4c(c3c2)n(C2CCOCC2)c(=O)n4C)cn1 [AZD0156] (first compound max 10 µM, 7x7, partner max 1 µM)
Result: -0.0486
